These data points were gathered from patent US20260069689A1.

tested-on: T1, SARS-CoV2 Spike ecto foldon Trimer expressed with a C-terminal myc-myc-hexahistidine (SARS-CoV-2, UniProt P0DTC2 14-1213)
T1 construct: extracellular domain
assay-protocol: SPR Biacore, mAb captured by anti-hFc, 37C
measured-parameter: kon (M⁻¹ s⁻¹)

INSERT INTO results (binder, readout_number) VALUES
  ('mAb15151 (antibody, V domains shown) VH: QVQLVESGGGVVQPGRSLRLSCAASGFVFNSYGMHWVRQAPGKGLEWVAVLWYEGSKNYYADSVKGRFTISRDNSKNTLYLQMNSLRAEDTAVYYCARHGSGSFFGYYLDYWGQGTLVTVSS VL: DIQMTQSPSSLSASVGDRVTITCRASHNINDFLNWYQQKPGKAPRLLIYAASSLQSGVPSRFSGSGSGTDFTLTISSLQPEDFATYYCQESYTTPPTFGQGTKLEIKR', '1.92e+06'),
  ('mAb14281 (antibody, V domains shown) VH: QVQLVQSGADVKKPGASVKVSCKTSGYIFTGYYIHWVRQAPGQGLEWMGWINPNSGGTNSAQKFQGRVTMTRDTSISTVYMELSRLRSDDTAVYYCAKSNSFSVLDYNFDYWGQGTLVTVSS VL: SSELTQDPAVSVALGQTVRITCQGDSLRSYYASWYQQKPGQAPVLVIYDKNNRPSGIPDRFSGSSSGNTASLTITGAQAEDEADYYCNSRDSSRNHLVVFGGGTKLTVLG', 834000),
  ('mAb15160 (antibody, V domains shown) VH: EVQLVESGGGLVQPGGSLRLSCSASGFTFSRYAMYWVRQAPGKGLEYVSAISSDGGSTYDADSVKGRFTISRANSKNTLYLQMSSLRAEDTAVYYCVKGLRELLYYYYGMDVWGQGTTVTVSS VL: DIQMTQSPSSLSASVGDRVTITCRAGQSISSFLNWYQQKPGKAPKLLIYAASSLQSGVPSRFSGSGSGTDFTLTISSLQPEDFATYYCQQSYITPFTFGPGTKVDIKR', '1.26e+06'),
  ('mAb15166 (antibody, V domains shown) VH: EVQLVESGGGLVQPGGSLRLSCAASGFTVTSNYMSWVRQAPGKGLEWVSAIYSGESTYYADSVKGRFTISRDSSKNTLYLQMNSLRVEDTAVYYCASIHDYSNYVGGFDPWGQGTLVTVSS VL: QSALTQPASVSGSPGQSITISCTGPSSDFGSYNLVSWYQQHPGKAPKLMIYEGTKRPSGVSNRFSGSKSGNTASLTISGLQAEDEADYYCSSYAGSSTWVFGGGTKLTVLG', '1.54e+06'),
  ('mAb14234 (antibody, V domains shown) VH: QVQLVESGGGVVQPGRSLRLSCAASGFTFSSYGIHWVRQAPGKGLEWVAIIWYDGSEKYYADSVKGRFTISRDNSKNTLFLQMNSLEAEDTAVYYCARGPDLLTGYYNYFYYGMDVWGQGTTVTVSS VL: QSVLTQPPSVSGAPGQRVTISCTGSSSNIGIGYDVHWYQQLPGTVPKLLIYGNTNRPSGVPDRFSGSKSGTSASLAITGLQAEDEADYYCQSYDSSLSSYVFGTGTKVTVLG', 699000),
  ('mAb13458 (antibody, V domains shown) VH: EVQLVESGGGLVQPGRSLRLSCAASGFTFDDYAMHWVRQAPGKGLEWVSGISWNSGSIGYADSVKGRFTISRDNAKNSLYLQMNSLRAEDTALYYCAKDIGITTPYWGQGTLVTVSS VL: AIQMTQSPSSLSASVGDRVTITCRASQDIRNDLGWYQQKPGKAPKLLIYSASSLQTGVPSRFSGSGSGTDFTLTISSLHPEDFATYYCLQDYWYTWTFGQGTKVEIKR', 815000),
  ('mAb15157 (antibody, V domains shown) VH: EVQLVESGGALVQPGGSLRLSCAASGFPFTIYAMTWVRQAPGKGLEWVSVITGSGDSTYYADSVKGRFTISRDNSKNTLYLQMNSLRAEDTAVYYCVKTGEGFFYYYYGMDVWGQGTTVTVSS VL: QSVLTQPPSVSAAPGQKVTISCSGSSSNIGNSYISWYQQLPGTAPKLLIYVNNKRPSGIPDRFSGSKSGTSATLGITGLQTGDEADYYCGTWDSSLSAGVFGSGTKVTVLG', '1.7e+06'),
  ('mAb15158 (antibody, V domains shown) VH: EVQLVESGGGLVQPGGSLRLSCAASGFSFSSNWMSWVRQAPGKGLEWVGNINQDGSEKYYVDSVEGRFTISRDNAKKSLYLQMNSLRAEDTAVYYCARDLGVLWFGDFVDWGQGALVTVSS VL: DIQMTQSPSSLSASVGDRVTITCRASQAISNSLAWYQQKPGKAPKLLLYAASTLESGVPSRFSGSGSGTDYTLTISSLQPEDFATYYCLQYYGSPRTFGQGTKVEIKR', 758000);
